Target: T1, human PD-1 expressed on cells (CHO human PD-1 cells) (human, UniProt Q15116 21-288)
T1 construct: also called CHO TREX human PD-1 cell line; CHO PD-1
T1 sequence (Q15116 21-288): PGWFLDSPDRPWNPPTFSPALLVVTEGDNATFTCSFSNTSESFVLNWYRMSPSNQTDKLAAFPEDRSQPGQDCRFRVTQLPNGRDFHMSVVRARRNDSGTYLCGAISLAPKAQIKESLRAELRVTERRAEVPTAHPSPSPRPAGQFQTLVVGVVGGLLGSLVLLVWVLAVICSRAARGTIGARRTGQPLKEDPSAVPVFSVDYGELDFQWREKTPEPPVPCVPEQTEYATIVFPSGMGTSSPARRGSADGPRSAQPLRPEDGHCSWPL
Experiment: FMAT inhibition; 200 pM PD-L2 on CHO human PD-1 cells
Method: All reagents and serially diluted VH were prepared in FMAT assay buffer. […] Plates were incubated for 2 hours at room temperature then fluorescence measured in the FL2 (502 nm-537 nm) and FL5 (677-800 nm) channels on the Mirrorball plate reader (TTP) following excitation at 488 nm and 640 nm. Data was expressed as a % of the total binding control (i.e. % control) after subtraction of the background signal determined from the non-specific binding control wells.
Can you tell me IC50 for the items I'm about to list?
Answers are plain numbers, in nM.

Below are worked cases with known answers.
Binder	Value Observed
Humabody® 1.63 (VHH, human VH single domain antibody) VHH: EVQLVESGGGLVKPGGSLRLSCAASGFTFSDSSMTWMRQAPGKGLEWVSYISSGGGVKFYTDSVKGRFTISRDNAKNSLYLQMNSLRADDTAVYYCAREAPLRLGESPHDAFDISGQGTMVTVSS	6.9
Humabody® 1.65 (VHH, human VH single domain antibody) VHH: QVQLVESGGGLVKPGGSLRLSCAASGFTFSDSSMTWMRQAPGKGLEWVSYISSGGGVKFYADSVKGRFTISRDNAKNSLYLQMNSLRADDTAVYYCAREAPLRLGESPHDAFDISGQGTMVTVSS	8.5
Humabody® 1.62 (VHH, human VH single domain antibody) VHH: QVQLVESGGGLVKPGGSLRLSCAASGFTFSDSSMTWMRQAPGKGLEWVSYISSGGAVKFYTDSVKGRFTISRDNAKNSLYLQMNSLRADDTAVYYCAREAPLRLGESPHDAFDISGQGTMVTVSS	10
Humabody® 1.92 (VHH, human VH single domain antibody) VHH: EVQLVESGGGLVKPGGSLRLSCAASGFTFSDESMTWMRQAPGKGLEWVSYISSGGGVKFYADSVKGRFTISRDNAKNSLYLQMNSLRAEDTAVYYCAREAPLRLGESPHDAFDISGQGTMVTVSS	4

Now for the binder whose IC50 we want.
// query Give the reported IC50 for this binder. Humabody® 1.64 (VHH, human VH single domain antibody) VHH: EVQLVESGGGLVKPGGSLRLSCAASGFTFSDSSMTWMRQAPGKGLEWVSYISSGGGVKFYADSVKGRFTISRDNAKNSLYLQMNSLRADDTAVYYCAREAPLRLGESPHDAFDISGQGTMVTVSS
// result 9
